These measurements were taken from ChEMBL document CHEMBL5537115.

System: Escherichia coli
protocol: Antibacterial activity against penicillin-susceptible Escherichia coli ATCC25922 assessed as bacterial growth inhibition incubated for 20 hrs by CLSI based broth microdilution method
Format: functional
Measured MIC values are reported for all entries that follow.
metric: MIC (µg/mL)

{"smilesRepresentation": "C[n+]1cc(-c2ccccc2)cc(/C=C/c2ccc(Cl)c(Cl)c2)c1-c1ccccc1.[I-]", "unit": "µg/mL", "result": 64}
{"smilesRepresentation": "CCCCOc1ccc(/C=C/c2cc(-c3ccccc3)c[n+](C)c2-c2ccccc2)cc1.[I-]", "unit": "µg/mL", "result": 8}
{"smilesRepresentation": "Cc1ccccc1-c1c[n+](C)c(-c2ccc(C(C)(C)C)cc2)cc1/C=C/c1ccc(C(C)(C)C)cc1.[I-]", "unit": "µg/mL", "result": 4}
